Assay: Plasma pharmacokinetics of Halofuginone hydrobromide in Beagle dogs (Example C)
Conditions: male, Beagle, dog, in vivo, po, 0.15 mg/kg, Mean Conc. (plasma)
Counter-ions that a name gives are not always drawn.
observable: concentration at 4 h (ng/mL)
Give the quantity in ng/mL, number only.

Q: Data request, read-out concentration at 4 h, for O=C(C[C@@H]1NCCC[C@H]1O)Cn1cnc2cc(Br)c(Cl)cc2c1=O [Halofuginone hydrobromide]
Result: 1.87

* * *

Assay: Plasma pharmacokinetics of Halofuginone hydrobromide in Beagle dogs (Example C)
Settings: male, Beagle, dog, in vivo, iv, 0.05 mg/kg, Mean Conc. (plasma)
Where a name gives a salt, the structure may show the parent alone.
observable: concentration at 8 h

Q: Data request, read-out concentration at 8 h, for O=C(C[C@@H]1NCCC[C@H]1O)Cn1cnc2cc(Br)c(Cl)cc2c1=O [Halofuginone hydrobromide]
Result: 1.08 ng/mL
